system: LoVo cells; assay: Apoptosis assay (Annexin V-FITC/PI flow cytometry), LoVo; format: cell-based, human; details: 50 μM, 24 h
Label scheme for Total Apoptosis (%) 24 h LoVo: lower than 10% is false, 10% and above is true.

[in] For this molecule, is measured Total Apoptosis (%) 24 h LoVo 10% or higher? COc1ccc(OC)c(-c2nnc(N)s2)c1
[out] true

[in] I'd appreciate it if you could say whether Nc1nnc(-c2ccc(O)c(O)c2)s1 has Total Apoptosis (%) 24 h LoVo at least equal to 10%.
[out] false

[in] Entry COc1cc(-c2nnc(N)s2)cc(OC)c1OC : is its Total Apoptosis (%) 24 h LoVo no less than 10%?
[out] true

[in] Can O=C(Nc1nnc(-c2ccccc2)s1)c1ccccc1CSc1ccccc1 be said to have Total Apoptosis (%) 24 h LoVo at or above 10%?
[out] true

[in] Hi team, for N.N.[Cl][Pt][Cl] [Cis-Pt, Cisplatin, reference compound] , is the recorded Total Apoptosis (%) 24 h LoVo at or above 10%?
[out] true

[in] Test whether the molecule Nc1nnc(-c2ccccc2CS(=O)(=O)c2ccccc2)s1 records Total Apoptosis (%) 24 h LoVo of 10% or higher.
[out] true

[in] Check the entry CC(=O)Nc1nnc(-c2ccccc2)s1 : does Total Apoptosis (%) 24 h LoVo equal or exceed 10%?
[out] true

[in] Say whether O=C(Nc1nnc(-c2ccccc2)s1)c1ccccc1 shows Total Apoptosis (%) 24 h LoVo of 10% or more.
[out] true

[in] Textbook exercise: given the entry Nc1nnc(-c2ccccc2)s1 , state whether its Total Apoptosis (%) 24 h LoVo is greater than or equal to 10%.
[out] false

[in] Could you please find out whether Cc1ccc(-c2nnc(N)s2)cc1 has Total Apoptosis (%) 24 h LoVo that meets 10% or exceeds it?
[out] false

[in] For this molecule, is measured Total Apoptosis (%) 24 h LoVo 10% or higher? Nc1nnc(-c2ccccc2CSc2ccccc2)s1
[out] false

---

experiment: Daphnia magna toxicity assay; type: in vivo; settings: Daphnia magna, in vivo; 24 h
Property Measured: LC50 at 24 h (µM)
Use µM as the unit, but write only the number.

[in] Suppose we examine the compound COc1ccc(OC)c(-c2nnc(N)s2)c1 [2d] ; what LC50 at 24 h value has been reported?
[out] 241

---

experiment: Daphnia magna toxicity assay; format: in vivo; details: Daphnia magna, in vivo; 48 h
Please provide measured LC50 at 48 h for the entries that follow.
Kindly provide the numeric value in µM only, without the unit symbol.

[in] So what's the measured LC50 at 48 h for this one? O=C(Nc1nnc(-c2ccccc2)s1)c1ccccc1
[out] 228

[in] LC50 at 48 h lookup needed for Cc1ccc(-c2nnc(N)s2)cc1 , thanks.
[out] 144

[in] Entry under review: COc1ccc(OC)c(-c2nnc(N)s2)c1 . Reported LC50 at 48 h?
[out] 50.7

[in] // LC50 at 48 h lookup, key: O=C(Nc1nnc(-c2ccccc2)s1)c1ccccc1CSc1ccccc1
[out] 188

---

tested on: MCF-7 cells; test: MTS cell viability assay, MCF-7 cells; type: cell-based, human; details: Homo sapiens, MCF7; 24 h exposure; read-out: IC50 (24 h) MCF-7
Property Measured: IC50

[in] Record lookup: for MCF-7 cells, what IC50 belongs to Cc1ccc(-c2nnc(N)s2)cc1 ?
[out] > 400 µM

[in] Quick check: IC50 on MCF-7 cells, item CC(=O)Nc1nnc(-c2ccccc2)s1 ?
[out] > 400 µM

[in] // map Nc1nnc(-c2ccccc2CS(=O)(=O)c2ccccc2)s1 to recorded IC50 (system: MCF-7 cells)
[out] 43.3 µM

[in] Can you look up IC50 on MCF-7 cells for COc1cc(-c2nnc(N)s2)cc(OC)c1OC ?
[out] > 400 µM

[in] Request - read-out IC50 | tested on MCF-7 cells | compound COc1cccc2c1C(=O)c1c(O)c3c(c(O)c1C2=O)C[C@@](O)(C(=O)CO)C[C@@H]3O[C@H]1C[C@H](N)[C@H](O)[C@H](C)O1 [DOX, Doxorubicin, reference compound]
[out] 129 µM

[in] Notebook entry, MCF-7 cells assay: IC50 of Nc1nnc(-c2ccccc2)s1 = ?
[out] > 400 µM

[in] # value lookup — system MCF-7 cells, readout IC50, item Nc1nnc(-c2ccccc2CSc2ccccc2)s1
[out] > 400 µM

[in] Item O=C(Nc1nnc(-c2ccccc2)s1)c1ccccc1 with MCF-7 cells - IC50?
[out] > 400 µM

[in] Given the entry Nc1nnc(-c2ccc(O)c(O)c2)s1 , what IC50 was observed with MCF-7 cells?
[out] > 400 µM

[in] For the record O=C(Nc1nnc(-c2ccccc2)s1)c1ccccc1CSc1ccccc1 , what value of IC50 is listed for MCF-7 cells?
[out] > 400 µM

[in] Could you share what IC50 was measured for COc1ccc(OC)c(-c2nnc(N)s2)c1 , tested on MCF-7 cells?
[out] 154 µM
